Hello, the source for this data is patent US4020111A, in case you need it.

Test system: polyvalent resistant (CH strain) houseflies
Test: whole plant or invertebrate
Format: in vivo, housefly (CH strain)
Settings: CH strain; Pyrethrum 2 + synergist 4 μg/fly
Description: The effect of O-(2-propynyl) oximes with Dimetilan and with GS 13798 was obtained from tests on polyvalent resistant (CH strain) houseflies that had been chilled and to the dorsal region of which was applied an acetone solution of synergist and insecticide at a ratio of two to one. […] In Table IX, and in the tables following it, the doses of topically applied insecticides and of synergists unless otherwise noted are expressed as micrograms per fly (μg/fly). […]
MEASURED ENDPOINT: percent kill after 24 hours (%)

# COMPOUND, DISPLAY UNIT, REPORTED VALUE
measured = [
    ("C#CCON=C(C)c1ccc(Cl)cc1 [I-D]", "%", 67),
    ("C#CCOCc1c(Cl)ccc(Cl)c1Cl [II-E]", "%", 78),
    ("C#CCON=C(C)c1ccc2ccccc2c1 [I-F]", "%", 35),
    ("C#CCON=Cc1ccc(OC)c(OC)c1 [I-A]", "%", 15),
    ("C#CCOCc1ccc(Cl)c(Cl)c1Cl [II-D]", "%", 30),
    ("C#CCON=Cc1cccc2ccccc12 [I-I]", "%", 52),
    ("C#CCOCc1ccc(Cl)c(Cl)c1 [II-C]", "%", 50),
    ("C#CCON=Cc1ccc(Cl)cc1Cl [I-G]", "%", 47),
]

---

test system: mice; assay: synergism of acute toxicity of Dimetilan, GS 13005, Secobarbital and Methadone (intraperitoneal); assay type: in vivo, Swiss albino white male mice; settings: Dimetilan 8 mg/kg + synergist 240 mg/kg ip, 48 hours, of eight mice
MEASURED ENDPOINT: number of mice dead

# COMPOUND, MEASURED ENDPOINT, REPORTED VALUE
records = [
    ("C#CCOCc1cccc(Cl)c1[N+](=O)[O-]", "number of mice dead", 3),
    ("C#CCON=C(C)c1ccc(Cl)cc1", "number of mice dead", 6),
    ("C#CCOCc1cccc2ccccc12", "number of mice dead", 2),
    ("C#CCON=Cc1cccc2ccccc12", "number of mice dead", 3),
    ("C#CCOC(c1ccc(Cl)cc1Cl)C(C)[N+](=O)[O-] (stereo not drawn)", "number of mice dead", 7),
    ("C#CCOCc1cccc([N+](=O)[O-])c1Cl", "number of mice dead", 5),
    ("C#CCOCc1ccc(Cl)c(Cl)c1", "number of mice dead", 0),
    ("C#CCOCc1ccc([N+](=O)[O-])cc1Cl", "number of mice dead", 4),
    ("C#CCn1ncc2ccc(Cl)cc21", "number of mice dead", 1),
    ("C#CCOCc1c(Cl)cccc1[N+](=O)[O-]", "number of mice dead", 6),
    ("C#CCOCc1c(Cl)ccc(Cl)c1Cl", "number of mice dead", 0),
    ("C#CCON=Cc1ccc(Cl)cc1Cl", "number of mice dead", 0),
    ("C#CCOCc1ccc([N+](=O)[O-])cc1", "number of mice dead", 1),
    ("C#CCON=Cc1ccc(N(C)C)cc1", "number of mice dead", 0),
    ("C#CCOCc1ccc(Cl)cc1[N+](=O)[O-]", "number of mice dead", 4),
    ("C#CCON=C(C)c1ccc2ccccc2c1", "number of mice dead", 4),
    ("C#CCOC(c1ccc(Cl)cc1)C(C)[N+](=O)[O-] (stereo not drawn)", "number of mice dead", 7),
    ("C#CCOCc1ccc(Cl)c(Cl)c1Cl", "number of mice dead", 0),
    ("C#CCOCc1c(Cl)cccc1Cl", "number of mice dead", 6),
    ("C#CCOCc1ccc([N+](=O)[O-])c(Cl)c1", "number of mice dead", 2),
    ("C#CCn1nc(Cl)c2ccccc21", "number of mice dead", 0),
    ("C#CCn1ncc2cc([N+](=O)[O-])ccc21", "number of mice dead", 0),
    ("C#CCON=Cc1cccc([N+](=O)[O-])c1", "number of mice dead", 6),
    ("CCOCCOCCOC(C)Oc1ccc2c(c1)OCO2 (stereo not drawn) [Sesoxane, reference compound]", "number of mice dead", 8),
    ("C#CCOCc1cc(Cl)c(Cl)cc1Cl", "number of mice dead", 0),
    ("C#CCOCc1ccccc1[N+](=O)[O-]", "number of mice dead", 0),
    ("C#CCOCc1ccc(Cl)c([N+](=O)[O-])c1", "number of mice dead", 3),
]
